# targetOrTestSystem: human SGLT2 (Homo sapiens)
# Construct: expressed in transfected cells; host or cells: CHOK1 (CHO-K1) cells, kept under Geneticin selection
# Sequence (P31639 whole entry): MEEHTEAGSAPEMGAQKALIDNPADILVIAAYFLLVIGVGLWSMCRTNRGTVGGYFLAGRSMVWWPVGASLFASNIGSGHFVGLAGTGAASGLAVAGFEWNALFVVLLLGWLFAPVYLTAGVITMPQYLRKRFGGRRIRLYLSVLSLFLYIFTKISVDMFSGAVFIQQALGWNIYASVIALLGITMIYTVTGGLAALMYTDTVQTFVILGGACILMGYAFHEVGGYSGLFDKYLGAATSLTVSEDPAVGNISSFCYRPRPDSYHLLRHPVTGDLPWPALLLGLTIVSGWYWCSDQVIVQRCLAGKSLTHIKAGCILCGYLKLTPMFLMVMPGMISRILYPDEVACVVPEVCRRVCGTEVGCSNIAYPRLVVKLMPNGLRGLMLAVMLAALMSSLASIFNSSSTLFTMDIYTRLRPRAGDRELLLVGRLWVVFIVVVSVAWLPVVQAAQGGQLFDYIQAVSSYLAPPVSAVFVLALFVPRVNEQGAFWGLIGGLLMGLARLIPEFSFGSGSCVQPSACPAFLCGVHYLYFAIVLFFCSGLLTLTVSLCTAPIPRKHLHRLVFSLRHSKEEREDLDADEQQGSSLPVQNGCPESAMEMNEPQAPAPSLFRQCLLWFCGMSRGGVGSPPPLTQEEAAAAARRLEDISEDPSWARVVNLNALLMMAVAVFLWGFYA
# assayInfo: Assay for SGLT2 inhibition (14C-AMG uptake in CHOK1 cells expressing human SGLT2)
# Type: cell-based
# conditionDescription: CHOK1 cells expressing human SGLT2; 14C-AMG uptake 0.5 mM, 2 hours at 37° C.; read-out: IC50
# Experimental: 1. Assay for SGLT2 Inhibition Compounds described in the above examples were used for the SGLT2 inhibition assay. CHOK1 cells expressing human SGLT2 were seeded in 24-well plates at a density of 400,000 cells/well in F-12 nutrient mixture (Ham's F-12) containing 10% fetal bovine serum, 400 μg/ml Geneticin, 50 units/ml sodium penicillin G (Gibco-BRL) and 50 μg/ml streptomycin sulfate. […] Specific uptake was normalized for the protein concentrations measured by the method of Bradford.
pIC50: −log10 of the molar value.
observable: pIC50

| compound | targetOrTestSystem | pIC50 |
| --- | --- | --- |
| CCOc1ccc2cc(Cc3cc([C@@H]4O[C@H](CO)[C@@H](O)[C@H](O)[C@H]4O)ccc3C)sc2c1 [Example 228] | human SGLT2 (Homo sapiens) | 8.44 |
| NC(=O)c1ccc(-c2ccc(Cc3cc([C@@H]4O[C@H](CO)[C@@H](O)[C@H](O)[C@H]4O)ccc3Cl)s2)cn1 [Example 188] | human SGLT2 (Homo sapiens) | 8.80 |
| Cc1ccc([C@@H]2O[C@H](CO)[C@@H](O)[C@H](O)[C@H]2O)cc1Cc1ccc(-c2cccc(Cl)c2)s1 [Example 89] | human SGLT2 (Homo sapiens) | 8.52 |
| Cc1ccc([C@@H]2O[C@H](CO)[C@@H](O)[C@H](O)[C@H]2O)cc1Cc1cc2ccc(OCCF)cc2s1 [Example 235] | human SGLT2 (Homo sapiens) | 8.59 |

(a) OC[C@H]1O[C@@H](c2ccc(Cl)c(Cc3ccc(-c4ncc(F)s4)s3)c2)[C@H](O)[C@@H](O)[C@@H]1O [Example 256]
(b) COc1ccc2cc(Cc3cc([C@@H]4O[C@H](CO)[C@@H](O)[C@H](O)[C@H]4O)ccc3C)sc2c1 [Example 238]
(c) Cc1cc(-c2ccc(Cc3cc([C@@H]4O[C@H](CO)[C@@H](O)[C@H](O)[C@H]4O)ccc3C)s2)on1 [Example 246]
Give the ascending ranking of the items by reported pIC50. API: response body holds the labels in the requested order.
c, a, b
(c: 8.19, a: 8.51, b: 8.80)
